Examples of compounds with documented pEC50 follow.
assayed_system: ΔF508-CFTR (Homo sapiens, UniProt P13569, DEL508-508)
Construct: host or cells: CFBE41o-, doxycycline-inducible
Sequence (P13569 with tags, fused parts or gaps DEL508-508): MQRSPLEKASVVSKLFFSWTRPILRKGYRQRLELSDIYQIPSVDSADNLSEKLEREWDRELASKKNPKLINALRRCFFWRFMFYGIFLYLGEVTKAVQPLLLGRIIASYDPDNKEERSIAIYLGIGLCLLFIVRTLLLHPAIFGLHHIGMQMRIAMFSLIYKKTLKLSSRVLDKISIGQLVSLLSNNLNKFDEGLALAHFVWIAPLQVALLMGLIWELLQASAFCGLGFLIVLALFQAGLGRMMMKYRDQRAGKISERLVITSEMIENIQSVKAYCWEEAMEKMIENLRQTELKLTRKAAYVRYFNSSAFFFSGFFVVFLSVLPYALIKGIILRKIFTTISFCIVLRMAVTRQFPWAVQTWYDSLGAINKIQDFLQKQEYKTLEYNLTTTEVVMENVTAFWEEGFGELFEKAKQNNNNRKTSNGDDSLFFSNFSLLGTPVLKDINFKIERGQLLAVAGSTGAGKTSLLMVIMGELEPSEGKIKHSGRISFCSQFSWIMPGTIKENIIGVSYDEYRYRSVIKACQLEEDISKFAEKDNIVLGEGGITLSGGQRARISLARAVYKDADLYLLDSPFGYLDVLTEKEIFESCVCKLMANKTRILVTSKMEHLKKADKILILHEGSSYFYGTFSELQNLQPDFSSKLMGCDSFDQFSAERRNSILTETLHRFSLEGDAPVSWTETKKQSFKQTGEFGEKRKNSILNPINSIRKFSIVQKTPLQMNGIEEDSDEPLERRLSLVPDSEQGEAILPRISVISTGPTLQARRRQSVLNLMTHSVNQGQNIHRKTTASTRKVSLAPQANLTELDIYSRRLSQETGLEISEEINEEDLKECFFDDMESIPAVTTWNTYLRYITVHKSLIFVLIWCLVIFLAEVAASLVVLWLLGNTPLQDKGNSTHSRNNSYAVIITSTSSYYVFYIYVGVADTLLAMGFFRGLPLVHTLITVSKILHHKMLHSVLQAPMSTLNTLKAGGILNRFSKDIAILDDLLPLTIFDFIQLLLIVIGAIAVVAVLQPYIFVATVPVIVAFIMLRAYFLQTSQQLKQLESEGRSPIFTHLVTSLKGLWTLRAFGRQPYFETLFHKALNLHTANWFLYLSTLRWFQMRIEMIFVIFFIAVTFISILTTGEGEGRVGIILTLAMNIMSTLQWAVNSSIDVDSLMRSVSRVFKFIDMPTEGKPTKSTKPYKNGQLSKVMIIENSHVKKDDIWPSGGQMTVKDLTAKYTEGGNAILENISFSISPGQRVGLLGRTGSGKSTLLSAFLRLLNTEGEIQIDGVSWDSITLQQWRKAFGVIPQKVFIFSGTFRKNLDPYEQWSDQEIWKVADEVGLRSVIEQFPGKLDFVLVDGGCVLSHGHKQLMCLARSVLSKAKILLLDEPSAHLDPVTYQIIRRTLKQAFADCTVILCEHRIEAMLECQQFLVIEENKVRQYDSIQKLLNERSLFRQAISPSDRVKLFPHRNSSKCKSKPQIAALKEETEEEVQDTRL
protocol_summary: CFTR cell surface levels using HRP-tagged ΔF508-CFTR expressing CFBE cells, intrinsic corrector capacity
Assay type: cell-based
condition_context: HRP-tagged ΔF508-CFTR expressing CFBE41o- cells; compound alone (intrinsic corrector capacity); 20 hours at 33° C.; read-out: EC50
On this scale, pEC50 is minus log10 of a concentration expressed in M (mol/L).

Here is how some compounds turned out for pEC50.
compound="COCC1CCN(c2cc(C(=O)NS(=O)(=O)N3CCOCC3)nc3c2c(C2CCC2)nn3-c2ccccc2)CC1 [Compound 396]" measurement_type=pEC50 assay_result=6.92
compound="CS(=O)(=O)NC(=O)c1cc(OCC2CCOCC2)c2c(C3CCC3)nn(-c3ccccc3)c2n1 [Compound 200]" measurement_type=pEC50 assay_result=6.50
compound="CCS(=O)(=O)NC(=O)c1cc(-c2ccc(N3CCOCC3)cc2)c2c(C)nn(-c3ccc(F)cc3F)c2n1 [Compound 113]" measurement_type=pEC50 assay_result=6.33
compound="CCS(=O)(=O)NC(=O)c1cc(N2CCCC(OC)C2)c2c(C(C)C)nn(-c3cccc(C)c3)c2n1 (stereo not drawn) [Compound 163]" measurement_type=pEC50 assay_result=6.35
compound="CC(C)c1nn(-c2ccc(F)cc2F)c2nc(C(=O)NS(C)(=O)=O)cc(-c3ccc(N4CCC(C#N)CC4)cc3)c12 [Compound 141]" measurement_type=pEC50 assay_result=6.54
compound="CC(C)Oc1nn(C2CCCCC2)c2nc(C(=O)NS(=O)(=O)N(C)C)cc(-c3ccc(C(=O)N4CCN(C)CC4)cc3)c12 [Compound 423]" measurement_type=pEC50 assay_result=6.85
compound="CC(C)c1nn(-c2cc(F)cc(F)c2)c2nc(C(=O)NS(C)(=O)=O)cc(-c3ccc(N4CCC(C#N)CC4)cc3)c12 [Compound 130]" measurement_type=pEC50 assay_result=6.27
compound="CN(C)S(=O)(=O)NC(=O)c1cc(N2CCC(N3CCC(C(F)(F)F)C3)CC2)c2c(C3CCC3)nn(-c3ccc(F)cc3)c2n1 (stereo not drawn) [Compound 560]" measurement_type=pEC50 assay_result=7.02
compound="CC(C)Oc1nn(C2CCCCC2)c2nc(C(=O)NS(C)(=O)=O)cc(-c3ccc(CN4CCN(C)CC4)cc3)c12 [Compound 441]" measurement_type=pEC50 assay_result=6.46
compound="CO[C@H]1CC[C@@H](Oc2cc(C(=O)NS(C)(=O)=O)nc3c2c(C2CCC2)nn3-c2ccccc2)CC1 [Compound 211]" measurement_type=pEC50 assay_result=6.22

# ---- query compound ----
Kindly note the recorded pEC50 for CS(=O)(=O)NC(=O)c1cc(N2CCC(N3CCOCC3)CC2)c2c(C3CCC3)nn(C3CCCCC3)c2n1 [Compound 418] , which is 6.49

Hello, the source for this data is patent US10259810B2, in case you need it.
